The measurements presented in this section are drawn from ChEMBL document CHEMBL1143995.

- target_of_assay: Autotaxin (Homo sapiens) (UniProt Q13822)
- test_context: MDA-MB-435, at 10 µM
- Description: Inhibition of human autotaxin expressed in MDA-MB-435 cells assessed as fluorescent lysophosphatidyl choline analog hydrolysis at 10 uM
metric: inhibition (%)

O=C(O)c1ccc2c(c1)C(=O)N(c1cccc(N3C(=O)c4ccc(C(=O)O)cc4C3=O)n1)C2=O 89
O=C(c1ccc2c(c1)C(=O)N(c1ccccc1-c1ccccc1)C2=O)c1ccc2c(c1)C(=O)N(c1ccccc1-c1ccccc1)C2=O 91
Cc1c(N2C(=O)c3ccc(C(=O)c4ccc5c(c4)C(=O)N(c4c(C)n(C)n(-c6ccccc6)c4=O)C5=O)cc3C2=O)c(=O)n(-c2ccccc2)n1C 67

====

- target_of_assay: Autotaxin (Homo sapiens);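 further: activity read as cleavage of a fluorescent lysophosphatidylcholine analog by autotaxin expressed in the cells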
- test_context: MDA-MB-435, at 10 µM
metric: inhibition (%)

compound	target_of_assay	inhibition / %
CCCCOC(=O)c1ccccc1N1C(=O)c2ccc(C(=O)c3ccc4c(c3)C(=O)N(c3ccccc3C(=O)OCCCC)C4=O)cc2C1=O	Autotaxin (Homo sapiens)	87
O=C(Nc1ccc(O)c(C(=O)O)c1)c1ccc2c(c1)C(=O)N(CC1CCCO1)C2=O (stereo unspecified)	Autotaxin (Homo sapiens)	67
O=C(O)c1ccc2c(c1)C(=O)N(c1ccc(Cl)c(NC(=O)c3ccc4ccccc4c3O)c1)C2=O	Autotaxin (Homo sapiens)	86
O=C(O)c1cc(C(=O)O)cc(N2C(=O)c3ccc(C(=O)c4ccc5c(c4)C(=O)N(c4cc(C(=O)O)cc(C(=O)O)c4)C5=O)cc3C2=O)c1	Autotaxin (Homo sapiens)	49
Cc1cc(=O)oc2cc(OCC(=O)NC(CC(=O)O)C(=O)O)ccc12 (stereo unspecified)	Autotaxin (Homo sapiens)	85
Cc1ccc(NC(=S)NC(=O)C2CCCC2)cc1C	Autotaxin (Homo sapiens)	90
CC(=O)Nc1ccc(/N=N/c2c(S(=O)(=O)O)cc3cc(NC(=O)Nc4ccc5c(O)c(/N=N/c6ccccc6)c(S(=O)(=O)O)cc5c4)ccc3c2O)cc1	Autotaxin (Homo sapiens)	71
O=C(O)c1ccc(CN2C(=O)c3ccc(C(=O)c4ccc5c(c4)C(=O)N(Cc4ccc(C(=O)O)cc4)C5=O)cc3C2=O)cc1	Autotaxin (Homo sapiens)	46

P. Oc1cccc(/C=N/c2ccc(/N=N/c3ccccc3)cc2)c1O
Q. CCCCCCCOC(=O)c1ccc(N2C(=O)c3ccc(C(=O)c4ccc5c(c4)C(=O)N(c4ccc(C(=O)OCCCCCCC)cc4)C5=O)cc3C2=O)cc1
Problem: Lower inhibition: P or Q ? Could you answer with the label of the item you picked?
Result: Q
(Q: 58%, P: 86%)
